assay notes: Half life in Lewis rat at 2 mg/kg, po after 72 hrs
Assay type: ADME, organism-based
test context: in vivo
measure: half-life (h)

Please review the entries below; each comes with its answer.
{"cpd smiles": "CCCCN(C)c1nc2c(s1)-c1ccc([C@H]3CC[C@](N)(CO)C3)cc1CC2", "half-life [h]": 9}
{"cpd smiles": "Cc1ccc(-c2nc3c(s2)-c2ccc([C@H]4CC[C@](N)(CO)C4)cc2CC3)cc1", "half-life [h]": 6}

(P) CCCCCc1nc2c(s1)-c1ccc([C@H]3CC[C@](N)(CO)C3)cc1CC2
(Q) CCCCSc1nc2ccc3cc([C@H]4CC[C@](N)(CO)C4)ccc3c2s1
Q: Form field 'greater half-life' accepts P or Q ; which applies? Selection: enter the item's label.
A: P

(1) CCCCOc1nc2ccc3cc([C@H]4CC[C@](N)(CO)C4)ccc3c2s1
(2) CCCCCCOc1nc2ccc3cc([C@H]4CC[C@](N)(CO)C4)ccc3c2s1
Q: Thinking about recorded half-life values, which is higher, 1 or 2 ? Indicate which entry you chose by stating its label.
A: 2
(2: 41 h, 1: 14 h)
